Measured EC50 of individual entries
subject of test: hGLP-1R (Homo sapiens, UniProt P43220)
Sequence (P43220 24-463): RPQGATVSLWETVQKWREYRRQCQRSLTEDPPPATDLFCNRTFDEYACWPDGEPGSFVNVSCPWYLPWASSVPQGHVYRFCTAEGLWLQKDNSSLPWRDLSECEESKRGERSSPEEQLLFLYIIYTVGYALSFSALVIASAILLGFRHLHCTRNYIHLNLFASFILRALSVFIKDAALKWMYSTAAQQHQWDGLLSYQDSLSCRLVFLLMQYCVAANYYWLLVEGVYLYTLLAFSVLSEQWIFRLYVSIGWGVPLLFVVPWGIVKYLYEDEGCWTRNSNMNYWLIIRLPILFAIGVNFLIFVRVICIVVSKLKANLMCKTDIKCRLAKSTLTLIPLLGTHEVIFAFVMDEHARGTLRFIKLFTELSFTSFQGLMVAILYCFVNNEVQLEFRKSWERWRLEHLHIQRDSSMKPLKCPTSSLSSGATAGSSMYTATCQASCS
experiment summary: Functional cAMP activation in the presence of 0.1% casein (no HSA);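 also: intracellular cAMP rise after 30 min at 37 °C read by HTRF, normalized between buffer only (0%) and maximal control ligand (100%), four-parameter variable-slope fit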
Assay type: cell-based
applied conditions: read-out: Relative cAMP EC50, hGLP-1R
Starred links: 1 amine or outer side, 2 acyl side, 3 side chain; linkers in the order of their positions; H or OH if unused. Non-standard residues stand in square brackets, D forms with d. Groups on a side chain read outwards from the residue. *: point of attachment. C18 diacid = O=C(O)CCCCCCCCCCCCCCCCC(=O)*; αMePhe(2-F) = C[C@](N)(Cc1ccccc1F)C(=O)O; γGlu = O=C(O)[C@H](CCC(=O)[*:2])N[*:1]; αMeY = C[C@](N)(Cc1ccc(O)cc1)C(=O)O; 4Pal = N[C@@H](Cc1ccncc1)C(=O)O; αMeL = CC(C)C[C@](C)(N)C(=O)O; αMeS = C[C@](N)(CO)C(=O)O; Orn = NCCC[C@H](N)C(=O)O; Aib = CC(C)(N)C(=O)O
Form entry: enter the amount, then its unit.

Some entries whose results are on file:
substance="H-Y[Aib]QGT[αMePhe(2-F)]TSD[4Pal][αMeS]I[αMeL]LD[Orn]K([γGlu-γGlu-C18 diacid])AQ[Aib]QFI[dE][αMeY]LQEGGPSSGEPPPEGTGE-NH2 [Example 529]" subject_of_test="hGLP-1R (Homo sapiens, UniProt P43220)" result="0.467 nM"
substance="H-Y[Aib]QGT[αMePhe(2-F)]TSD[4Pal][αMeS]I[αMeL]LD[Orn]K([γGlu-γGlu-C18 diacid])AQ[Aib][Orn]FI[dE][αMeY]LAEGGPSSGEPPPSGSEE-NH2 [Example 589]" subject_of_test="hGLP-1R (Homo sapiens, UniProt P43220)" result="0.713 nM"

Read the next record carefully.
Exam item: Find the measured EC50: item H-Y[Aib]QGT[αMePhe(2-F)]TSD[4Pal][αMeS]I[αMeL]LD[Orn]K([γGlu-γGlu-C18 diacid])AQ[Aib][Orn]FI[dE][αMeY]LTEGGPSSGEPPPSGTGE-NH2 [Example 543] , target or system hGLP-1R (Homo sapiens, UniProt P43220).
Marked response: 0.41 nM

Source: patent US20240270821A1
